Target: PI3K delta (Homo sapiens, UniProt O00329)
Construct: purchased Millipore, Billerica, MA, USA
Sequence (O00329 whole entry, species assumed): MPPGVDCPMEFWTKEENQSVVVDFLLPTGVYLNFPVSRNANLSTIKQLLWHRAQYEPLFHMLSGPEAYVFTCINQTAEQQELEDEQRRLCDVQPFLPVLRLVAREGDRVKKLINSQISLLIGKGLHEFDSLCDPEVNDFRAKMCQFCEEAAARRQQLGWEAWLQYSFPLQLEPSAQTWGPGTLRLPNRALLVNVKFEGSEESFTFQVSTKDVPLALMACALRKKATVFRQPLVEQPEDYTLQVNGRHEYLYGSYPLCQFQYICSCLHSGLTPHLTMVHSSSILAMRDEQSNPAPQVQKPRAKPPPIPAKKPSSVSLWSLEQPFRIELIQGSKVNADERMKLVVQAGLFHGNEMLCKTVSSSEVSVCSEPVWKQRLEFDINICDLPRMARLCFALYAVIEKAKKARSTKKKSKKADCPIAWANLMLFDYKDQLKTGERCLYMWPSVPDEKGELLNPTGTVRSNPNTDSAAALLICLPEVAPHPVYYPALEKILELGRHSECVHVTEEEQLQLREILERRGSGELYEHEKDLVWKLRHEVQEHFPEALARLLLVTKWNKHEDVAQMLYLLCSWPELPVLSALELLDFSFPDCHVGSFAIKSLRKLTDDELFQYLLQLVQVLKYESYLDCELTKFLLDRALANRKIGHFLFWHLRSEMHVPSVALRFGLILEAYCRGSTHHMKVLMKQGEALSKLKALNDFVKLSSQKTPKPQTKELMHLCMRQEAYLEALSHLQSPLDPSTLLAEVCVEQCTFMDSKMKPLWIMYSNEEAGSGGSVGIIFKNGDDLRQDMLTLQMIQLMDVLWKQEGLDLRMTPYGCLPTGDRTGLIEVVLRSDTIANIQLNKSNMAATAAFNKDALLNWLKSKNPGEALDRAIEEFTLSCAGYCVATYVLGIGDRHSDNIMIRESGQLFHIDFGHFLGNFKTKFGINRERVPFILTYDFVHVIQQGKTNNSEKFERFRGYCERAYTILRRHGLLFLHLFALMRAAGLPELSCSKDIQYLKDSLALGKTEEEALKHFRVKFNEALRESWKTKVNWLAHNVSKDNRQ
Sequence (P27986 whole entry partner, species assumed): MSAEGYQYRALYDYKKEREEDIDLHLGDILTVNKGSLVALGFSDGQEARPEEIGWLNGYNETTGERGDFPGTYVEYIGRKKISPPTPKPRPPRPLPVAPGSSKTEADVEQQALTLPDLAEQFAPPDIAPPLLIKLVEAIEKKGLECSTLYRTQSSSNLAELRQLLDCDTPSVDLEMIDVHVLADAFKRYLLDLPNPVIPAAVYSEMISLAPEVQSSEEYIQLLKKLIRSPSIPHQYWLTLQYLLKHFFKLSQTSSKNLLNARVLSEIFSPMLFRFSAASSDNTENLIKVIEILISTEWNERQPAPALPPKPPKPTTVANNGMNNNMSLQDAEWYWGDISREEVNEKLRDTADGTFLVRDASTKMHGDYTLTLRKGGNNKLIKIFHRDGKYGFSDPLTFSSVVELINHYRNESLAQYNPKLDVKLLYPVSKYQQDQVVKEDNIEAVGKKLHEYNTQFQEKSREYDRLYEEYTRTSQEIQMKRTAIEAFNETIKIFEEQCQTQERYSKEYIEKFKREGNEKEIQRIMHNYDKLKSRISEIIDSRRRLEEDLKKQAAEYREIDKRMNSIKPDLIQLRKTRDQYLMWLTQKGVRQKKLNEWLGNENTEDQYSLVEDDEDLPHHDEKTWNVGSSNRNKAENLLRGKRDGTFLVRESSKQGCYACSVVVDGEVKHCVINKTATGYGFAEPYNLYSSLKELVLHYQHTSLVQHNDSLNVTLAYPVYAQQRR
Assay: Luciferase-based luminescence assay (KinaseGlo), PI3K delta enzymatic activity
Format: biochemical
Conditions: ratio of enzymatic IC50 against PI3Kα over IC50 against PI3Kδ
readoutName: α/δ ratio

Lab note: measured α/δ ratio of "C[C@H](Nc1nc(N2CCOCC2)nc(-n2c(C(F)F)nc3ccccc32)n1)c1ccccc1" was D’

Lab note: measured α/δ ratio of "CC(C)(Nc1nc(N2CCOCC2)nc(-n2c(C(F)F)nc3ccccc32)n1)C1(c2ccccc2)CC1" was A’

Lab note: measured α/δ ratio of "Cn1cc(-c2ccccc2CC(C)(C)Nc2nc(N3CCOCC3)nc(-n3c(C(F)F)nc4ccccc43)n2)cn1" was A’

Lab note: measured α/δ ratio of "CC(C)(Cc1cccc(Cl)c1)Nc1nc(N2CCOCC2)nc(-n2c(C(F)F)nc3ccccc32)n1" was A’
